Listing of recorded zone of inhibition at 100 µg/disc by entry.
- Test system: Bacillus subtilis
- assayRemarks: Antibacterial activity against Bacillus subtilis ATCC 6051 at 100 ug/disk by disk diffusion method
- Type: functional
- measurementContext: read-out: IZ

# compound, zone of inhibition at 100 µg/disc [mm]
measured = [
    ("COc1cc(O)c2c(c1)C1=C[C@@H](O)[C@H](O)C[C@]1(C)OC2=O", 30),
    ("COc1cc(O)c2c(c1)C1=CC(=O)[C@H](O)C[C@]1(C)OC2=O [DEHYDROALTENUENE A]", 13),
    ("COc1cc(O)c2c(c1)C1=C[C@H](O)[C@@H](O)C[C@]1(C)OC2=O", 20),
    ("COc1cc(O)c2c(c1)[C@H]1C[C@@H](O)[C@@H](O)C[C@]1(C)OC2=O [DIHYDROALTENUENE A]", 50),
    ("COc1cc(O)c2c(c1)C1=CC(=O)[C@@H](O)C[C@]1(C)OC2=O [DEHYDROALTENUENE B]", 20),
]
